- Assayed system: T1, huCLL1-Q244-Avi-Tev-His (human, UniProt Q5QGZ9 65-265);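 also: Bio-layer interferometry with scFvs captured on biosensors via anti-V5 antibody, exposed 2 min to CLL-1 K244 or Q244 protein, 5 min dissociation, scored as binding, no binding or ambiguous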
- T1 construct: extracellular domain; also called CLL-1 K244Q
- T1 sequence (looked up): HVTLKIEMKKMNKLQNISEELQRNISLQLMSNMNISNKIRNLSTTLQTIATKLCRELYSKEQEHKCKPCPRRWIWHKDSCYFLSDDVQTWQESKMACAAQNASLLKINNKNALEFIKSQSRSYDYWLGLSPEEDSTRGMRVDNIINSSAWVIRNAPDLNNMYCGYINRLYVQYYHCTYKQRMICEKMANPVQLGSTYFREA
- Assay name: BLI
Reported metric: binding result

A selection of reference data follows.
Polypeptide No. 66 (scFv, V domains shown, scFv) VH: QVQLVQSGAEVKKPGASVKVSCKASGYTFNTYYMHWVRQAPGQGLEWMGWMHPNTGNTGYAQKFQGRVTMTRDTSTSTVYMELSSLRSEDTAVYYCARGTTSDAFDIWGQGTMVTVSS VL: DIQMTQSPSSLSASVGDRVTITCRASQSIFSYLNWYQQKPGKAPKLLIYSASNLQSGVPSRFSGSGSGTDFTLTISSLQPEDFATYYCQQSYSTPITFGQGTKVEIKR ... no binding
Polypeptide No. 68 (scFv, V domains shown, scFv) VH: QVQLVQSGAEVKKPGASVKVSCKASGYTFSSYDINWVRQAPGQGLEWVGWINPRNGGTDYAQKFQGRVTMTRDTSTSTVYMELSSLRSEDTAVYYCARHRWELDSFDYWGQGTLVTVSS VL: DIQMTQSPSSLSASVGDRVTITCRASQSISNYLNWYQQKPGKAPKLLIYATSSLQSGVPSRFSGSGSGTDFTLTISSLQPEDFATYYCQQGYNIPFTFGQGTKLEIKR ... binds
Polypeptide No. 76 (scFv, V domains shown, scFv) VH: QVQLVQSGAEVKKPGASVKVSCKASGYTFTTYYMHWVRQAPGQGLEWMGIINVSAGTTSYAQKFQGRVTMTRDTSTSTVYMELSSLRSEDTAVYYCAKEPYPHQSGWFFDYWGQGTLVTVSS VL: DIQMTQSPSSLSASVGDRVTITCQASQDINNYLNWYQQKPGKAPKLLIYDASNLETGVPSRFSGSGSGTDFTLTISSLQPEDFATYYCQQANSFPLTFGGGTKVEIKR ... binds
Polypeptide No. 45 (scFv, V domains shown, scFv) VH: EVQLVESGGGLVKPGGSLRLSCAASGFTFDEFGMNWVRQAPGKGLEWISYISGDSGYTNCADSVKGRFTISRDDSKNTLYLQMNSLKTEDTAVYYCAAGYGGYYFDYWGQGTLVTVSS VL: DIQMTQSPSSLSASVGDRVTITCQASQDIDIYLNWYQQKPGKAPKLLIYAASTLESGVPSRFSGSGSGTDFTLTISSLQPEDFATYYCQQSYSTPPTFGGGTKVEIKR ... no binding

Inquiry: Reported binding result for Polypeptide No. 84 (scFv, V domains shown, scFv) VH: QVQLVQSGAEVKKPGASVKVSCKASGGTFSNYAISWVRQAPGQGLEWMGWINPNSGGTNYAQKFQGRVTMTRDTSTSTVYMELSSLRSEDTAVYYCARVGYYDSSGGGMDVWGQGTTVTVSS VL: DIQMTQSPSSLSASVGDRVTITCRASQSISSWLAWYQQKPGKAPKLLIYDASNLETGVPSRFSGSGSGTDFTLTISSLQPEDFATYYCLQTHSFPLTFGPGTKVDIKR : what is it?
Reply text: binds

The reported numbers originate from patent US20240101668A1.
